Reference for the values: patent EP4700040A1

# testSystem: Large subunit-rSCFV5 fusion protein
# Sequence (chain, as listed by the source): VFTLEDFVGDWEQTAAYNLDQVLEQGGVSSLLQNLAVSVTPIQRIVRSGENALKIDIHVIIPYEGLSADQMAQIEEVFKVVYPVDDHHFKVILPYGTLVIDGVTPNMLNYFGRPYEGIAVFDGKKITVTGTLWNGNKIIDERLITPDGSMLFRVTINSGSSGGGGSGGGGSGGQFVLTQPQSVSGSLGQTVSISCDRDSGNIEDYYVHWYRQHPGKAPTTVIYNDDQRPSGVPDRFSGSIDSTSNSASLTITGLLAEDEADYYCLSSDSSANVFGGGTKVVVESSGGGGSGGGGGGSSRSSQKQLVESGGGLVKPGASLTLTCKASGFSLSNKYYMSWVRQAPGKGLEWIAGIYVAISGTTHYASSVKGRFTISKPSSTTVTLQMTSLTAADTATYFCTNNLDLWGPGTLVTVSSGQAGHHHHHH
# methodNotes: cell-based or functional assay
measuredMetric: Signal-to-noise ratio

// worked examples, Signal-to-noise ratio included
binder: VEGYRLHEKIS (peptide, part only; not given: rSCFV18 scFv part, part only) [rSCFV18-small subunit mutant fusion protein RA128]
measured: 45.2

binder: VSGWRIFDKKS (peptide, part only; not given: rSCFV18 scFv part, part only) [rSCFV18-small subunit mutant fusion protein RC-124]
measured: 7.5

binder: VNGWRIFDKKS (peptide, part only; not given: rSCFV18 scFv part, part only) [rSCFV18-small subunit mutant fusion protein RC-242]
measured: 5.9

[P] VEGYRIFEKKW (peptide, part only; not given: rSCFV18 scFv part, part only) [rSCFV18-small subunit mutant fusion protein RC-286]
[Q] VEGWRLFDRKS (peptide, part only; not given: rSCFV18 scFv part, part only) [rSCFV18-small subunit mutant fusion protein RC-232]
Lab note: record which item had the higher Signal-to-noise ratio, P or Q . Give the label under which the chosen entry appears.
P
(P: 11.4, Q: 5.8)

[P] VEGYRLFERKS (peptide, part only; not given: rSCFV18 scFv part, part only) [rSCFV18-small subunit mutant fusion protein RC-145]
[Q] VSGWRIHEKIS (peptide, part only; not given: rSCFV18 scFv part, part only) [rSCFV18-small subunit mutant fusion protein RA120]
Looking at P and Q , which one comes out lower in Signal-to-noise ratio terms? Give the label under which the chosen entry appears.
P
(P: 10.1, Q: 36.9)
